Give measured growth for each item. Keep answers brief.
Test system: MDA-MB-468 breast
Test: NCI-60 one-dose screen, 48 h (100 = growth as untreated, 0 = no growth, -100 = all killed)
Conditions: 10 µM unless noted
Compounds without any hit were thinned out: in the full panel of roughly 83,000, 20% have a hit. The source made the active and inactive calls. Rule for the calls: active = growth percent below 10; inactive = the rest.

### Prompt What value of growth on MDA-MB-468 breast does Cc1cc(C(=O)c2ccc(Cl)cc2)ccc1O have?
### Response 96.1% (inactive)

### Prompt What value of growth on MDA-MB-468 breast does Oc1[nH]c2ccc(Cl)cc2c1N=Nc1nc(N=Nc2c(O)[nH]c3ccc(Cl)cc23)nc(N2CCOCC2)n1 have?
### Response 23.6% (inactive)

### Prompt What value of growth on MDA-MB-468 breast does CCN1C(=S)N(CC)C2C1NC(=S)N2/N=C/C=C/c1ccccc1 (stereo not drawn) have?
### Response 2.3% (active)

###

Test system: MDA-MB-468 breast
Experiment: NCI-60 one-dose screen, 48 h
Conditions: 10 µM unless noted
Description: Growth inhibition of the MDA-MB-468 human Breast tumor cell line is measured as a screen for anti-cancer activity. Cells are grown in 96 well plates and exposed to the test compound for 48 hours. Compounds are tested at a single concentration, which is 10^-5 M for most compounds. The reported endpoint is percent growth (GI% or GIPRCNT), where numbers from 0 - 100% represent growth inhibition, and numbers from -100% - 0 represent cell death. […]
The panel holds about 83,000 compounds, 20% with a hit somewhere; the sample as a whole holds those more often. The source made the active and inactive calls. Rule for the calls: active = growth percent below 10; inactive = the rest.
Result category, one only: YES for active, NO for inactive

### Prompt In this assay, the call recorded for Cn1cc(-c2nc(N)nnc2-c2c[nH]c3ccc(Br)cc23)c2cc(Br)ccc21 was what?
### Response YES

### Prompt In this assay, the call recorded for CCN1C(=O)N(CC)C2SC(N/N=C/c3ccccc3F)=NC21 (stereo unspecified) was what?
### Response NO

### Prompt In this assay, the call recorded for C=C1C(=O)O[C@H]2[C@H]1CC/C(COC(=O)c1ccc(C(=O)O)s1)=C\CC[C@@]1(C)O[C@@H]21 was what?
### Response YES

### Prompt In this assay, the call recorded for COc1cc(COC(=O)CCCCC[P+](c2ccccc2)(c2ccccc2)c2ccccc2)c(OC)c2c1OCO2 was what?
### Response YES

### Prompt In this assay, the call recorded for Clc1ccc(CNc2ccc3nc(CCC4CCCCC4)[nH]c3c2)cc1 was what?
### Response YES

### Prompt In this assay, the call recorded for COc1ccccc1C(=O)/C=C/c1cc2cccc(OC)c2[nH]c1=O was what?
### Response YES

###

Test system: MDA-MB-468 breast
Assay: NCI-60 one-dose screen, 48 h (100 = growth as untreated, 0 = no growth, -100 = all killed)
Details: 10 µM unless noted
About 83,000 compounds went through this panel and 20% of them were active in at least one assay; those are over-represented in the sample as a whole. Active and inactive are the calls of the source. Rule for the calls: active = growth percent below 10; inactive = the rest.
Give measured growth for each item. Keep answers brief.

### Prompt Looking for the measured growth of Cc1ccccc1SSc1ccccc1C , can you help?
### Response 68.4% (inactive)

### Prompt Looking for the measured growth of COC(=O)C(Cc1ccccc1)n1cc(COc2nc(Cl)nc(Nc3ccc(Cl)cc3)n2)nn1 (stereo not drawn) , can you help?
### Response 69.1% (inactive)

### Prompt Looking for the measured growth of NC(=O)N1N=C(c2ccc(Cl)cc2)CC1c1cn(-c2ccccc2)nc1-c1ccc(Cl)cc1 (stereo not drawn) , can you help?
### Response 69.1% (inactive)
